Cited source: ChEMBL document CHEMBL1201862

tested on: MDA-N; test: NCI tumour cell line growth inhibition, 48 h
Calls of active or inactive are those of the source. Cut-off read from the data, not from the text of the source: active = GI50 up to about 1.1 µM and inactive = higher.
Labels: label 1 = active, label 0 = inactive

{"columns": ["molecule", "answer_label"],
 "data": [
  ["O=C(Nc1ccccc1)N1CCN(C(=O)Nc2ccccc2)C1=S", "label 0"],
  ["Nn1c(S)nnc1C12CC3CC(CC(C3)C1)C2", "label 0"],
  ["Cc1cc(O)c2c(=O)c3c(O)cc(O)c4c5c(O)cc(O)c6c(=O)c7c(O)cc(C)c8c1c2c(c34)c(c78)c65 [HYPERICIN]", "label 0"],
  ["Brc1ccc2c(c1)[C@H]1CCc3c([nH]c4ccccc34)[C@H]1N2", "label 0"],
  ["C=C1C(=O)C2=CC1CCC(=O)C1(C)CCC(OC(C)=O)C(C)(C)C1CC2O (stereo unspecified)", "label 0"],
  ["COc1cc(Oc2nc3ccc(C(F)(F)F)cc3nc2-c2ccccc2)cc(OC)c1OC", "label 0"],
  ["CC(=O)c1nc2ccccc2n1C(C)C(=O)c1ccccc1 (stereo unspecified)", "label 0"],
  ["N[C@H]1CCN(c2c(F)cc3c(=O)c(C(=O)O)cn4c3c2Oc2cc3c(ccc5ccccc53)cc2-4)C1", "label 0"],
  ["Cc1c(-c2ccccc2)c(C#N)c2nnn(-c3cccc(Cl)c3)c(=O)n12", "label 0"],
  ["CC(O)c1cc2c(s1)C(=O)c1c(C(C)O)csc1C2=O (stereo unspecified)", "label 1"],
  ["O=C(NNC(=O)c1cc2ccccc2[nH]1)c1cc2ccccc2[nH]1", "label 0"],
  ["CN(C)CC1COC2Cc3ccccc3C1O2 (stereo unspecified)", "label 0"],
  ["COc1ccc(N2C(=O)CC(c3c[nH]c4ccccc34)C2=O)cc1 (stereo unspecified)", "label 0"],
  ["COc1ccc(OC)c(-c2nc3n(c2/C=C2/C(=O)Nc4ccccc42)CCS3)c1", "label 0"],
  ["COc1ccc(-c2coc3cc(OC)cc(O)c3c2=O)cc1 [4',7-DIMETHOXY-5-HYDROXYGENISTEIN]", "label 0"],
  ["N#CCCN(CCC#N)c1ccc(/C=C2\\SC(=S)NC2=O)cc1", "label 0"],
  ["COC(=O)[C@@H](NC(=O)c1ccc(CNC(=O)/C(C)=C/c2ccccc2)cc1)C(C)C", "label 0"],
  ["CC1(C)OC(=S)N(c2ccccc2)C12C=Cc1cc3ccccc3cc1O2 (stereo unspecified)", "label 0"],
  ["Oc1cc(-c2ccc(F)cc2)nc2ncc(Cl)cc12", "label 0"],
  ["COc1ccc(NC(=S)N/N=C\\c2ccc(NC(C)=O)cc2)cc1", "label 0"],
  ["C=C(C)[C@H]1CC(=O)[C@@]2(C)C[C@H]3O[C@]3(C)CC/C=C(\\C)CC[C@H]12", "label 0"]
]}

###

system: RPMI-8226; assay: NCI tumour cell line growth inhibition, 48 h
Activity calls are given as the source filed them. Cut-off read from the data, not from the text of the source: active = GI50 up to about 1.1 µM and inactive = higher.
Outcome codes: 1 (yes) (active), 0 (no) (inactive)

{"columns": ["compound", "answer_label"],
 "data": [
  ["C=C1C[C@H](O)[C@H](Br)C(C)(C)C12CCC(C)(Cl)C(Br)C2 (stereo partly specified)", "1 (yes)"],
  ["CC(=O)OCC1OC(O/C=C(\\CN=[N+]=[N-])C(C)=O)C(OC(C)=O)C(OC(C)=O)C1OC(C)=O (stereo unspecified)", "0 (no)"],
  ["O=C1c2ccccc2C(=O)c2oc(Br)cc21", "0 (no)"],
  ["CC1(C)O[C@@H](CCl)C[C@H](C#N)O1", "0 (no)"],
  ["CN(C)CCNC(=O)c1cc([N+](=O)[O-])cn1C", "0 (no)"],
  ["NC1CC(=O)c2c(Br)csc21 (stereo unspecified)", "0 (no)"],
  ["O=C(Nc1ccccc1)N1CCN(C(=O)Nc2ccccc2)C1=S", "0 (no)"],
  ["Cc1cc2cc3c(O)nc(O)nc3nc2cc1C", "0 (no)"],
  ["COc1ccc2cc(CN3CCC(C4CCNCC4)CC3)ccc2c1", "0 (no)"],
  ["COc1ccc(CNc2cnc3ccc(N)cc3n2)cc1", "0 (no)"],
  ["N#Cc1cccc(N2C(=O)C3C4C=CC(C3C2=O)C2C(=O)N(c3cccc(C#N)c3)C(=O)C42)c1 (stereo unspecified)", "0 (no)"],
  ["Cc1cnc(Cl)nc1C(C#N)c1nc2ccccc2n1C (stereo unspecified)", "0 (no)"],
  ["CC(C)c1ccc2c(c1)[C@@]1(C)CC[C@H](C)C(C)(C)C1CC2 (stereo partly specified)", "0 (no)"],
  ["Cc1ccc(C)n1-c1ccccc1C1C=CN(C(=O)OC(C)(C)C)C=C1", "0 (no)"],
  ["OCC1OC2c3ccccc3COC2C1OCc1ccccc1 (stereo unspecified)", "0 (no)"],
  ["C#C[C@]1(O)CCC2C3CCc4cc(Oc5nc(F)nc(-n6c(C)nc7cc8ccccc8cc76)n5)ccc4C3CCC21C (stereo partly specified)", "0 (no)"],
  ["CCN(CC)c1ccc(/C=C/C2=NN(c3cccc(S(=O)(=O)O)c3)C3(C2)C(Cl)C(=O)N3c2nc3ccccc3s2)cc1 (stereo unspecified)", "0 (no)"],
  ["C[C@H](CCC(=O)O)[C@H]1CC[C@H]2[C@@H]3CC[C@@H]4C[C@H](O)CC[C@]4(C)[C@H]3C[C@H](O)[C@]12C", "0 (no)"],
  ["N#CCCN(CCC#N)c1ccc(/C=C2\\SC(=S)NC2=O)cc1", "0 (no)"],
  ["CCc1ccc(/C=C/C(=O)C2CN(CC)CCC2(O)/C=C/c2ccc(CC)cc2)cc1 (stereo unspecified)", "0 (no)"],
  ["CCCCCCCCCCCCSC(=S)c1c(C)[nH]n(-c2ccccc2)c1=O", "0 (no)"]
]}

###

test system: HCT-116; experiment: NCI tumour cell line growth inhibition, 48 h
The source made the active and inactive calls. Cut-off read from the data, not from the text of the source: active = GI50 up to about 1.1 µM and inactive = higher. Where a SMILES comes first, the peptide text is derived from it. [ ]: non-standard residue; d: D form. The star is where a group is joined. Ac5c = NC1(C(=O)O)CCCC1; Boc = CC(C)(C)OC(=O)*; OBn = c1ccc(CO*)cc1

{"columns": ["molecule", "GI50"],
 "data": [
  ["COc1ccc2c(c1)C(=O)N1CCOC1C2C(=O)O (stereo not given)", "> 100 µM (inactive)"],
  ["Clc1ccc(-c2cc(-c3cc4cc(Br)ccc4nc3Cl)on2)cc1", "12.2 µM (inactive)"],
  ["COc1ccc(-n2c(CCC(=O)O)nc3c2C(=O)c2ccccc2C3=O)cc1", "80.2 µM (inactive)"],
  ["C#CCn1c(=O)c(C)cn(/C(=C/C(=O)OCC)C(=O)OCC)c1=O", "4.67 µM (inactive)"],
  ["CON(C)C(=O)C(C)N(Cc1ccccc1)Cc1ccccc1 (stereo not given)", "50.2 µM (inactive)"],
  ["C[C@H](CCC(=O)O)[C@H]1CC[C@H]2[C@@H]3CC[C@@H]4C[C@H](O)CC[C@]4(C)[C@H]3C[C@H](O)[C@]12C", "32.9 µM (inactive)"],
  ["COc1ccc(/C=C/C(=O)c2cccc(C(=O)/C=C/c3ccc(OC)c(OC)c3)n2)cc1OC", "7.96 µM (inactive)"],
  ["O=C1OC2C(O)COC2(O)C1(O)Cc1c[nH]c2ccccc12 (stereo not given)", "> 100 µM (inactive)"],
  ["CC1(C)O[C@@H](CCl)C[C@H](C#N)O1", "> 100 µM (inactive)"],
  ["NC1=NN(c2ccccc2)C2(c3ccncc3C(=O)O)C1C(N)=NN2c1ccccc1 (stereo not given)", "> 100 µM (inactive)"],
  ["Fc1ccc2c(c1)cc1ccc3cccc4ccc2c1c34", "> 100 µM (inactive)"],
  ["CC(C)(C)OC(=O)NC(Cc1ccccc1)C(=O)NC(Cc1ccccc1)C(=O)NCC(=O)OCc1ccccc1 (stereo not drawn) (Boc-Phe-Phe-Gly-OBn; configuration not given here)", "18.3 µM (inactive)"],
  ["COC(=O)C12CC(C3CC31)C1CC12 (stereo not given)", "> 100 µM (inactive)"],
  ["NC1(C(=O)NC2(C(=O)O)CCCC2)CCCC1 (H-[Ac5c]-[Ac5c]-OH)", "> 100 µM (inactive)"],
  ["CC1C(=O)CC[C@@]2(C)C(=O)CCCC12O (stereo not given in full)", "> 100 µM (inactive)"],
  ["CN(CCO)/N=N/c1[nH]cnc1C(N)=O", "49.5 µM (inactive)"],
  ["CC(C)/C(Cl)=N/OC(=O)Nc1ccc(F)c(Cl)c1", "2.54 µM (inactive)"],
  ["CC12CO[C@@](C)(CC(S(=O)(=O)c3ccccc3)C1)O2 (stereo not given in full)", "> 100 µM (inactive)"],
  ["COC(=O)[C@@H](NC(=O)c1ccc(CNC(=O)/C(C)=C/c2ccccc2)cc1)C(C)C", "> 100 µM (inactive)"],
  ["COC(=O)C12CCC(C)(C)CC1C1=CCC3C4(C)CC(O)C(O)C(C)(C(=O)OC)C4CCC3(C)C1(CO)CC2 (stereo not given)", "13.7 µM (inactive)"]
]}
